Test system: Escherichia coli TOP10
Assay: shrunken log2 fold change of peptide-encoding DNA abundance (4.5 h post-induction vs induction); higher = less antimicrobial activity (less host growth inhibition)
Conditions: time post-induction: 4.5 h; library: site-saturation at positions 5, 18, 19, 20
Values of shrunken log2 fold change greater than or equal to 0.02 map to Fulfilled; values below map to Not fulfilled.

Please indicate if the recorded shrunken log2 fold change for "RRIRMRPPRLPRPRPRPICWPRP" meets or exceeds 0.02.
Fulfilled

====

Entries and their shrunken log2 fold change values follow.
System: Escherichia coli TOP10
Assay: shrunken log2 fold change of peptide-encoding DNA abundance (4.5 h post-induction vs induction); higher = less antimicrobial activity (less host growth inhibition)
Conditions: time post-induction: 4.5 h; library: site-saturation at positions 5, 18, 19, 20
Write the number on its own, no unit after it.

I'm curious: which shrunken log2 fold change was measured for "RRIRDRPPRLPRPRPRPITYPRP" tested on Escherichia coli TOP10?
0.024

shrunken log2 fold change of "RRIRQRPPRLPRPRPRPFINPRP" on Escherichia coli TOP10?
-0.241

GET /values?readout=shrunken log2 fold change&system=Escherichia coli TOP10&item= "RRIRPRPPRLPRPRPRPLATPRP"
0.605

Record lookup: for Escherichia coli TOP10, what shrunken log2 fold change belongs to "RRIRKRPPRLPRPRPRPRDGPRP" ?
0.822

GET /values?readout=shrunken log2 fold change&system=Escherichia coli TOP10&item= "RRIRVRPPRLPRPRPRPTFSPRP"
-0.3

// fetch Escherichia coli TOP10 shrunken log2 fold change for "RRIRKRPPRLPRPRPRPNVCPRP"
-0.144

====

Tested on: Escherichia coli TOP10;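 also: peptides expressed intracellularly from a pBAD plasmid library in pooled LB shake-flask culture, induced with 0.3% L-arabinose, DNA abundance read by NGS, three biological replicates, DESeq2 with apeglm shrinkage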
Assay: shrunken log2 fold change of peptide-encoding DNA abundance (4.5 h post-induction vs induction); higher = less antimicrobial activity (less host growth inhibition)
Conditions: time post-induction: 4.5 h; library: site-saturation at positions 5, 18, 19, 20
Measurement label: shrunken log2 fold change

Solved entries (count: 2):
Sequence code | Target or test system | Measurement label | Measured value
RRIRLRPPRLPRPRPRPIIRPRP | Escherichia coli TOP10 | shrunken log2 fold change | -0.19
RRIRVRPPRLPRPRPRPPIDPRP | Escherichia coli TOP10 | shrunken log2 fold change | 0.0721

Please look up its shrunken log2 fold change: "RRIRWRPPRLPRPRPRPISLPRP"
-0.161

Bench note: what shrunken log2 fold change did "RRIRWRPPRLPRPRPRPPSWPRP" show?
1.32

Endpoint output: shrunken log2 fold change of "RRIRGRPPRLPRPRPRPGHSPRP" . Value?
-0.0314

What value of measured shrunken log2 fold change is listed for "RRIRARPPRLPRPRPRPYMRPRP" ?
-0.0199

For the sequence "RRIRVRPPRLPRPRPRPTGLPRP" , what shrunken log2 fold change is on record?
0.000711

Quick one: shrunken log2 fold change for "RRIRWRPPRLPRPRPRPDVGPRP" ?
0.181

I have this sequence here, "RRIRMRPPRLPRPRPRPDALPRP" , and I need its recorded shrunken log2 fold change.
0.438

What value of shrunken log2 fold change has been reported for the following sequence? "RRIRHRPPRLPRPRPRPHKNPRP"
-0.263

shrunken log2 fold change lookup needed for "RRIRCRPPRLPRPRPRPAKFPRP" , thanks.
0.154

Quick one: shrunken log2 fold change of "RRIRHRPPRLPRPRPRPYHHPRP" ?
-0.607
